Assay: BSK_CASM3C_SRB: Viability Assessment in the BioMAP Diversity Plus: CASM3C Assay (AID 2283050);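 also: total protein by SRB staining as cytotoxicity measure in parallel cultures; cells exposed to compound for 24 h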
Settings: primary human coronary artery smooth muscle cells
The source made the active and inactive calls. The calls were made as follows: active = hit-call score of the fitted dose curve at least 0.9, where 1 is the maximum; inactive = score below 0.9.
Tick one outcome: active, inactive

Example cases with answers are listed next.
FC(F)(F)C(F)(F)C(F)(F)C(F)(F)C(F)(F)C(F)(F)CC[Si](Cl)(Cl)Cl: inactive
O=C(O)C(F)(F)C(F)(F)C(F)(F)OC(F)(C(F)(F)F)C(F)(F)F: inactive

How did this test come out for OCC(O)CC(F)(F)C(F)(F)C(F)(F)C(F)(F)F (stereo not drawn) ? inactive

How did this test come out for O=S(=O)(OCC(F)(F)F)C(F)(F)C(F)(F)C(F)(F)C(F)(F)F ? inactive

How did this test come out for FC(F)(F)C(F)(F)C(F)(F)CC1CO1 (stereo not drawn) ? inactive

How did this test come out for Nc1cc([N+](=O)[O-])cc(Cl)c1O ? inactive

How did this test come out for CCN(CC)c1ccc(N=Nc2ccccc2)cc1 ? active

----------
Test: ATG_SREBP_CIS: Attagene CIS-FACTORIAL HepG2 Assay for human Sterol Regulatory Element Binding (SREBP) (AID 2282962)
Settings: HepG2 Attagene cis-factorial SREBP reporter, mRNA; actives raise or lower the signal
Active and inactive are the calls of the source. Rule for the calls: active = hit-call score of the fitted dose curve at least 0.9, where 1 is the maximum; inactive = score below 0.9.
Metric: AC50

Solved entries (count: 5):
CCN(CC)c1ccc(C=O)c(O)c1: inactive
Cc1ccc2c(c1)OCC(=O)CO2: inactive
C[Si](Cl)(Cl)CCC(F)(F)C(F)(F)C(F)(F)C(F)(F)C(F)(F)C(F)(F)F: inactive
O=C(Cl)C(F)(F)C(F)(F)C(F)(F)C(F)(F)C(F)(F)C(F)(F)C(F)(F)F: inactive
CCOC(=O)CC(=O)C(F)(F)C(F)(F)F: inactive

Shift focus to the following entry.
Consider the compound CCC(Cc1c(I)cc(I)c(N)c1I)C(=O)O (stereo unspecified) . State its measured AC50. 24.1 µM (active)

----------
Biological target: Heat shock factor protein 1 (Homo sapiens)
Experiment: ATG_HSE_CIS: Attagene CIS-FACTORIAL HepG2 Assay for human Heat Shock Transcription Factor 1 (HSE) (AID 2282953)
Conditions: HepG2 HSE cis-reporter, Attagene RNA transcription; actives raise or lower the signal
Description: ATG_CIS is a cell-based, multiplexed-readout assay that uses HepG2, a human liver cell line, with measurements taken at 24 hours after chemical dosing in a 24-well plate.ATG_HSE_CIS is one of 52 assay component(s) measured or calculated from the ATG_CIS assay. […] This assay endpoint, ATG_HSE_CIS, was analyzed with bidirectional fitting relative to DMSO as the negative control and baseline of activity. […]
The source made the active and inactive calls. Rule for the calls: active = hit-call score of the fitted dose curve at least 0.9, where 1 is the maximum; inactive = score below 0.9.
Tick one outcome: TRUE (active), FALSE (inactive)

Example cases with answers are listed next.
Cc1ccc([N+](=O)[O-])c(C)c1: FALSE
O=C1C=CC(=O)N1c1ccc(Cc2ccc(N3C(=O)C=CC3=O)cc2)cc1: TRUE

How did this test come out for O=C(c1ccccc1)c1ccc(O)cc1O ? FALSE

----------
Tested on: TTR (gene 7276)
Experiment: CCTE_GLTED_hTTR_0.5uM: CCTE's human Transthyretin (hTTR) Inhibition Assay, with 0.5uM TTR, Great Lakes Toxicology and Ecology Division (GLTED) Lab (AID 2284320)
The source made the active and inactive calls. Rule for the calls: active = hit-call score of the fitted dose curve at least 0.9, where 1 is the maximum; inactive = score below 0.9.
Below, each entry is listed with its recorded AC50.

Consider the compound NS(=O)(=O)C(F)(F)C(F)(F)C(F)(F)C(F)(F)C(F)(F)C(F)(F)F . State its measured AC50. 0.329 µM (active)

Consider the compound OCC(F)(F)C(F)(F)C(F)(F)C(F)(F)C(F)(F)C(F)(F)CO . State its measured AC50. 11.2 µM (active)

Consider the compound O=C(O)C(F)(F)C(F)(F)C(F)(F)OC(F)(F)F . State its measured AC50. 4.54 µM (active)

Consider the compound O=C(O)CCC(F)(F)C(F)(F)C(F)(F)F . State its measured AC50. 17.6 µM (active)

Consider the compound NC(=O)C(F)(F)C(F)(F)C(F)(F)C(F)(F)C(N)=O . State its measured AC50. 44.1 µM (active)

Consider the compound C=CC(=O)OCC(F)(F)C(F)(F)C(F)(F)COC(=O)C=C . State its measured AC50. 0.424 µM (active)

Consider the compound O=S(=O)(OCC(F)(F)F)C(F)(F)C(F)(F)C(F)(F)C(F)(F)F . State its measured AC50. 1.4 µM (active)

Consider the compound O=S(=O)(O)CCC(F)(F)C(F)(F)C(F)(F)C(F)(F)F . State its measured AC50. 2.1 µM (active)

Consider the compound NC(=O)C(F)(F)C(F)(F)C(F)(F)C(F)(F)C(F)(F)C(F)(F)C(F)(F)F . State its measured AC50. 5.65 µM (active)

Consider the compound C=C(C)C(=O)OCC(F)(F)C(F)(F)C(F)(F)C(F)F . State its measured AC50. 19 µM (active)

Consider the compound NC(=O)C(F)(F)C(F)(F)C(F)(F)C(F)F . State its measured AC50. 45.2 µM (active)

Consider the compound CCOC(=O)CC(=O)C(F)(F)C(F)(F)F . State its measured AC50. 49.8 µM (active)

Consider the compound OCC(F)(F)C(F)(F)C(F)(F)C(F)(F)C(F)(F)C(F)(F)C(F)(F)C(F)(F)CO . State its measured AC50. 2.78 µM (active)
